TGT: MAL^TIR (Homo sapiens, UniProt P58753)
Construct: MAL (residues 79–221); 6xHis; made in house; host or cells: E. coli BL21 (DE3)
Sequence (P58753 79-221): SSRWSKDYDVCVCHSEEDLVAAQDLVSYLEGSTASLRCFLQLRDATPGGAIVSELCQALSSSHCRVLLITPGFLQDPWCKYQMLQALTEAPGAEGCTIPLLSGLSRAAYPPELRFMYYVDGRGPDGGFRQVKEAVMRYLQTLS
RUN_DESCRIPTION: T‐Surf phage library (P8 and P3) selection against MAL^TIR, four rounds, NGS read counts
Type: binding
COND: P3 library, selection against MAL, rank after grouping
Listed here: items and their measured P3_MAL Rank (after).
Answer with a number only.

# annotated cases, reported P3_MAL Rank (after) shown
LKGESWRQAREKAGKL; 533
RLLKWQQAMHQFHRWV; 563
LKVEGWRLALEKAGTL; 484

Alright, here's another sequence for you.
Recorded P3_MAL Rank (after) of SSFREGLWHLLELTKT , please.
525

###

TGT: MyD88^TIR (Homo sapiens)
Construct: MyD88 (residues 148–296); 6xHis; made in house; host or cells: E. coli BL21 (DE3)
Sequence (Q99836 148-296): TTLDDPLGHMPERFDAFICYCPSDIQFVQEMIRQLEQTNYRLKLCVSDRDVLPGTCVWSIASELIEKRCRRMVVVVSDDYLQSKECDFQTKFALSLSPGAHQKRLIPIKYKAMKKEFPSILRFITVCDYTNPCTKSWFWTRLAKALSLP
RUN_DESCRIPTION: T‐Surf phage library (P8 and P3) selection against MyD88^TIR, four rounds, NGS read counts
Format: binding
COND: P8 library, selection against MyD88 TIR; rank by count before grouping
QUANTITY_KIND: P8_MyD88 Rank (before)

# annotated cases, reported P8_MyD88 Rank (before) shown
YELDFSHFWLFEGPAG; 538
DPQDLDWFYERLVSL; 716
FHGDELRDNFIRYLVW; 421

Recorded P8_MyD88 Rank (before) of NYASSPWALDELVKIF , please.
295

Also, YELDFSHFWLFDAGGDA please.
537

Also, DPQDLVWFYESLVSLF please.
2714

Also, FIRYLVWGLRDERLNL please.
297

###

TGT: MyD88^TIR (Homo sapiens)
Construct: MyD88 (residues 148–296); 6xHis; made in house; host or cells: E. coli BL21 (DE3)
RUN_DESCRIPTION: T‐Surf phage library (P8 and P3) selection against MyD88^TIR, four rounds, NGS read counts
Type: binding
COND: P3_MyD88: rank by count after grouping
Listed here: items and their measured Rank (after).

NQWLNSLTAPANPSDW; 396

Give Rank (after) (MyD88^TIR (Homo sapiens)) of the following sequence: SSCREGLWRLLELSNK
402

Also, DTILEKVQSIAPELLR please.
401

Also, SLRQNLVSNLLEEFKR please.
480

Also, DIQRSRFKDDADLVGQ please.
391

Also, NQWRNALYEAANLS please.
184

Also, SSFREGLWSLLELSKN please.
183

###

TGT: MyD88^TIR (Homo sapiens)
Construct: MyD88 (residues 148–296); 6xHis; made in house; host or cells: E. coli BL21 (DE3)
RUN_DESCRIPTION: T‐Surf phage library (P8 and P3) selection against MyD88^TIR, four rounds, NGS read counts
Type: binding
COND: P8_MyD88: rank by NGS read count before grouping
Listed here: items and their measured Rank (before).
Answer with a number only.

# annotated cases, reported Rank (before) shown
DLLLCVFQTFFARLTE; 2592
IDDHHLTFLVSLLLSL; 3651
LGYHRIDWEYCVGIED; 3318
YKLALHFRDWLVGVH; 2137
YASSSWYLDELCIFC; 1858

Recorded Rank (before) of LGYQWNDWEYFVGIED , please.
3326

Also, PQAPEWSYERLVSLIL please.
3417

The measurements presented in this section are drawn from paper PMC11714206.
